Tested on: 282377-053-R-J1-PDC complex spheroid viability
Experiment: Anticancer human tumor 282377-053-R-J1-PDC patient-derived colon adenocarcinoma cell line growth inhibition [RAS]
Conditions: second compound 0.1 µM; first compound 3.16 µM; stronger effect = lower value
Listed here are compounds together with their documented viability, T/C.
Numbers only; they are read as %.

Example compounds with recorded viability, T/C:
CC(Nc1ccc2c(c1)OCCn1cc(N3C(=O)OCC3C(F)F)nc1-2)C(N)=O (stereo not drawn) + C=CC(=O)N1CCN(c2nc(OCC3CCCN3C)nc3c(F)c(-c4nc(N)cc(C)c4C(F)(F)F)c(Cl)cc23)C(C)C1: 102
NC1c2ccccc2OC12CCN(c1cnc3c(N4CCCc5ncccc54)n[nH]c3n1)CC2 (stereo not drawn) + C#Cc1c(F)ccc2cc(O)cc(-c3ncc4c(N5CC6CCC(C5)N6)nc(OCC56CCCN5CC(F)C6)nc4c3F)c12: 110

Proceeding to the next compound to report its viability, T/C.
Input line: Output reported viability, T/C of the compound NC1c2ccccc2OC12CCN(c1cnc3c(N4CCCc5ncccc54)n[nH]c3n1)CC2 (stereo not drawn) + C=CC(=O)N1CCN(c2nc(OCC3CCCN3C)nc3c(F)c(-c4nc(N)cc(C)c4C(F)(F)F)c(Cl)cc23)C(C)C1 on 282377-053-R-J1-PDC complex spheroid viability.
Output line: 122

* * *

Each item that follows carries a reported viability, T/C.
Tested on: 282377-053-R-J1-PDC complex spheroid viability
Assay: Anticancer human tumor 282377-053-R-J1-PDC cell line growth inhibition [RAS];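 further: spheroids exposed to agents for seven days before readout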;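 on viability, T/C: luminescence viability as percent of DMSO vehicle control wells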
Conditions: second compound 0.0316 µM; first compound 0.000949 µM; stronger effect = lower value

# example entries with known answers
CC1(C)CCC(Nc2ncc(C(F)(F)F)c(-c3c[nH]c4c(P(C)(C)=O)c(C#N)ccc34)n2)CN1 (centres undefined) + C=CC(=O)N1CCN(c2nc(OCC3CCCN3C)nc3c(F)c(-c4nc(N)cc(C)c4C(F)(F)F)c(Cl)cc23)C(C)C1: 91.7%
CCc1c2c(nc3ccc(O)cc13)-c1cc3c(c(=O)n1C2)COC(=O)[C@]3(O)CC + C=CC(=O)N1CCN(c2nc(OCC3CCCN3C)nc3c(F)c(-c4nc(N)cc(C)c4C(F)(F)F)c(Cl)cc23)C(C)C1: 99.2%
CCc1c2c(nc3ccc(O)cc13)-c1cc3c(c(=O)n1C2)COC(=O)[C@]3(O)CC + C#Cc1c(F)ccc2cc(O)cc(-c3ncc4c(N5CC6CCC(C5)N6)nc(OCC56CCCN5CC(F)C6)nc4c3F)c12: 97%

Input line: Give viability, T/C; test system 282377-053-R-J1-PDC complex spheroid viability; compound CC1(C)CCC(Nc2ncc(C(F)(F)F)c(-c3c[nH]c4c(P(C)(C)=O)c(C#N)ccc34)n2)CN1 (centres undefined) + C#Cc1c(F)ccc2cc(O)cc(-c3ncc4c(N5CC6CCC(C5)N6)nc(OCC56CCCN5CC(F)C6)nc4c3F)c12
Output line: 142%

* * *

Tested on: 282377-053-R-J1-PDC complex spheroid viability
Assay: Anticancer human tumor 282377-053-R-J1-PDC cell line growth inhibition [RAS];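 further: spheroids exposed to agents for seven days before readout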
Settings: curve of first compound; second compound 1 µM
pIC50: −log10 of the molar value.
Below, each entry is listed with its recorded pIC50.

Would you please look over these solved cases?
O=C(c1ccc(F)c(F)c1Nc1ccc(I)cc1F)N1CC(O)([C@@H]2CCCCN2)C1 + C=CC(=O)N1CCN(c2nc(OCC3CCCN3C)nc3c(F)c(-c4nc(N)cc(C)c4C(F)(F)F)c(Cl)cc23)C(C)C1: 6.85
CCc1c2c(nc3ccc(O)cc13)-c1cc3c(c(=O)n1C2)COC(=O)[C@]3(O)CC + C#Cc1c(F)ccc2cc(O)cc(-c3ncc4c(N5CC6CCC(C5)N6)nc(OCC56CCCN5CC(F)C6)nc4c3F)c12: < 6.52
Cc1nc(N2CCC3(CC2)COC(C)C3N)c(CO)nc1Sc1ccnc(N)c1Cl (stereo unspecified) + C#Cc1c(F)ccc2cc(O)cc(-c3ncc4c(N5CC6CCC(C5)N6)nc(OCC56CCCN5CC(F)C6)nc4c3F)c12: < 5.00
CC1(C)CCC(Nc2ncc(C(F)(F)F)c(-c3c[nH]c4c(P(C)(C)=O)c(C#N)ccc34)n2)CN1 (stereo unspecified) + C=CC(=O)N1CCN(c2nc(OCC3CCCN3C)nc3c(F)c(-c4nc(N)cc(C)c4C(F)(F)F)c(Cl)cc23)C(C)C1: < 6.52
CCC(CC)c1cc(NC2CCC(N)C2)n2nccc2n1 (stereo unspecified) + C=CC(=O)N1CCN(c2nc(OCC3CCCN3C)nc3c(F)c(-c4nc(N)cc(C)c4C(F)(F)F)c(Cl)cc23)C(C)C1: 5.72
C=CC(=O)Nc1cc(Nc2nccc(-c3cn(C)c4ccccc34)n2)c(OC)cc1N(C)CCN(C)C + C=CC(=O)N1CCN(c2nc(OCC3CCCN3C)nc3c(F)c(-c4nc(N)cc(C)c4C(F)(F)F)c(Cl)cc23)C(C)C1: < 6.00
CC1(C)CCC(Nc2ncc(C(F)(F)F)c(-c3c[nH]c4c(P(C)(C)=O)c(C#N)ccc34)n2)CN1 (stereo unspecified) + C#Cc1c(F)ccc2cc(O)cc(-c3ncc4c(N5CC6CCC(C5)N6)nc(OCC56CCCN5CC(F)C6)nc4c3F)c12: < 6.52
C[C@@H](NC(=O)c1ncnc(N)c1Cl)c1ncc(C(=O)Nc2cc(C(F)(F)F)c(Cl)cn2)s1 + C=CC(=O)N1CCN(c2nc(OCC3CCCN3C)nc3c(F)c(-c4nc(N)cc(C)c4C(F)(F)F)c(Cl)cc23)C(C)C1: < 5.00

Shift focus to the following entry.
Input line: Enter recorded pIC50 with 282377-053-R-J1-PDC complex spheroid viability for CCN1CCN(Cc2ccc(Nc3ncc(F)c(-c4cc(F)c5nc(C)n(C(C)C)c5c4)n3)nc2)CC1 + C#Cc1c(F)ccc2cc(O)cc(-c3ncc4c(N5CC6CCC(C5)N6)nc(OCC56CCCN5CC(F)C6)nc4c3F)c12 here.
Output line: < 6.00

* * *

System: 282377-053-R-J1-PDC complex spheroid viability
Assay: Anticancer human tumor 282377-053-R-J1-PDC cell line growth inhibition [RAS];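 further: spheroids exposed to agents for seven days before readout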;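 on viability, T/C: luminescence viability as percent of DMSO vehicle control wells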
Conditions: second compound 1 µM; first compound 10 µM; stronger effect = lower value
Label 1 when viability, T/C < 80%; otherwise 0.

CC1(O)CCCC1n1c(=O)c(C(F)F)cc2cnc(NC3CCN(S(C)(=O)=O)CC3)nc21 (stereo not given) + C=CC(=O)N1CCN(c2nc(OCC3CCCN3C)nc3c(F)c(-c4nc(N)cc(C)c4C(F)(F)F)c(Cl)cc23)C(C)C1: 1
Cc1nc(N2CCC3(CC2)COC(C)C3N)c(CO)nc1Sc1ccnc(N)c1Cl (stereo not given) + C#Cc1c(F)ccc2cc(O)cc(-c3ncc4c(N5CC6CCC(C5)N6)nc(OCC56CCCN5CC(F)C6)nc4c3F)c12: 0
C[C@@H](NC(=O)c1ncnc(N)c1Cl)c1ncc(C(=O)Nc2cc(C(F)(F)F)c(Cl)cn2)s1 + C=CC(=O)N1CCN(c2nc(OCC3CCCN3C)nc3c(F)c(-c4nc(N)cc(C)c4C(F)(F)F)c(Cl)cc23)C(C)C1: 0

Input line: API: query returns whether the compound falls strictly under 80% in viability, T/C. Query: CC1(O)CCCC1n1c(=O)c(C(F)F)cc2cnc(NC3CCN(S(C)(=O)=O)CC3)nc21 (stereo not given) + C#Cc1c(F)ccc2cc(O)cc(-c3ncc4c(N5CC6CCC(C5)N6)nc(OCC56CCCN5CC(F)C6)nc4c3F)c12
Output line: 1

Input line: Dear colleague, could you confirm whether viability, T/C of CC(C)NCC(C(=O)N1CCN(c2ncnc3c2C(C)CC3O)CC1)c1ccc(Cl)cc1 (stereo not given) + C=CC(=O)N1CCN(c2nc(OCC3CCCN3C)nc3c(F)c(-c4nc(N)cc(C)c4C(F)(F)F)c(Cl)cc23)C(C)C1 falls below 80%? Thanks.
Output line: 1

* * *

Examples of compounds with documented viability, T/C follow.
Tested on: 282377-053-R-J1-PDC complex spheroid viability
Experiment: Anticancer human tumor 282377-053-R-J1-PDC cell line growth inhibition [RAS];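 further: spheroids exposed to agents for seven days before readout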;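 on viability, T/C: luminescence viability as percent of DMSO vehicle control wells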
Conditions: second compound 0.0949 µM; first compound 0.1 µM; stronger effect = lower value
State the answer as a number, implicitly in %.

CC(C)NCC(C(=O)N1CCN(c2ncnc3c2C(C)CC3O)CC1)c1ccc(Cl)cc1 (configuration not stated) + CCn1c(-c2cccnc2C(C)OC)c2c3cc(ccc31)N1CCOC(CC(NC(=O)C(C(C)C)N(C)C(=O)C3(F)CCN(C(=O)C#CC(C)(C)N(C)C)CC3)C(=O)N3CCCC(N3)C(=O)OCC(C)(C)C2)C1: 94.4

Field: next compound
Input line: Supply measured viability, T/C of Nc1ccn(C2OC(CO)C(O)C2(F)F)c(=O)n1 (configuration not stated) + CCn1c(-c2cccnc2C(C)OC)c2c3cc(ccc31)N1CCOC(CC(NC(=O)C(C(C)C)N(C)C(=O)C3(F)CCN(C(=O)C#CC(C)(C)N(C)C)CC3)C(=O)N3CCCC(N3)C(=O)OCC(C)(C)C2)C1 in your reply.
Output line: 74.3

Ref: PubChem BioAssay AID2060905
